Test system: MS2 coat protein
Assay text: apparent KD of MS2 coat protein; designed switch direction (-1 OFF switch, 1 ON switch): 1; higher = weaker reporter binding
Assay setup: input ligand: microRNA oligo, concentration not stated
Experimental endpoint: apparent KD of MS2 coat protein (nM)
Quick reminder: number only, in nM, skip the unit.

>>> observed_result("GUUAGGAAUCUAGCAUACAUGAGGAUCACCCAUGUAAGUGGGAAGGAUAUGGUACAGAAACUGUACCAGAAGGUCUUAUUAAUU [Omei SS(NG) 3 A] (Eterna round: R96, puzzle: Same State NG 3)")
80.4
>>> observed_result("GGAGCCGGCCUAGGAUAUUUCAUAAUAAAACAUGAGGAUCACCCAUGUAGGCCAGAAGGCCUUGGGAAGAAGGAGGUCGGCUCC [Loop Effect - U26] (Eterna round: R96, puzzle: Same State NG 2)")
30.2

Param item: AACAAUCUAUCUGAGGAUAUCAUGAAAAAAACAUGAGGAUCACCCAUGUGCAGGAAAACUGCAUAUGAGAAGGCAGAUAGAUUGA [SS2: 1101] (Eterna round: R96, puzzle: Same State 2) ; param system: MS2 coat protein; output apparent KD of MS2 coat protein: 490

The recorded apparent KD of MS2 coat protein with MS2 coat protein for UGGAGACAUCAAGGAUAUGCUACCGUUUCGGUAGCAGAAGGUGAUCACAUGAGGAUCACCCAUGUAUGCAUGCGUGAGCGUGCU [JL SSNG1 3.53] (Eterna round: R96, puzzle: Same State NG 1) was 32.7

# value of apparent KD of MS2 coat protein, MS2 coat protein, item AGGCCAUCGGGAGGAUAUGGCACCUUAUUGGUGCCAGAAGGUCCAACAUGAGGAUCACCCAUGUGGGAGUGGUCUAAUGACCAC [Fiskers NG1(ss) - 4] (Eterna round: R96, puzzle: Same State NG 1) = 58.1

Tested on MS2 coat protein: UGGUACAUGGGAGGAUAUGGGUUGAUGACAUGAGGAUCACCCAUGUUAAAUAUGCCGAGAGGCAACUAGAAGGCCCAUGUACCU [JL SSNG1 3.99] (Eterna round: R96, puzzle: Same State NG 2) . Observed apparent KD of MS2 coat protein: 1320

UGUUGUAUUACAGGAUAUCUAUUAAUUUUAUUUAGAGAAGGGUAUUCACAUGAGGAUCACCCAUGUAUAUACGAGGAAGUUGUG [JMF's solution 13] (Eterna round: R96, puzzle: Same State NG 1) on MS2 coat protein gives apparent KD of MS2 coat protein = 38.7

###

System: MS2 coat protein
Assay text: apparent KD of MS2 coat protein; designed switch direction (-1 OFF switch, 1 ON switch): -1; higher = weaker reporter binding
Assay setup: input ligand: microRNA oligo, concentration not stated
Experimental endpoint: apparent KD of MS2 coat protein (nM)
Express your answer in nM, writing the number without its unit.

Entry GUUGUUUAUGUAGGAUAUGCCUGGCGUGCCUUAGCAGAAGGACAUGAGGAUCACCCAUGUAUUGCGGUCUGCGUUCAGAUCGCU [salish99_ExNG1_r4_021] (Eterna round: R96, puzzle: Exclusion NG 1) , apparent KD of MS2 coat protein reported as 25.1

apparent KD of MS2 coat protein measured on UAUACAAAAGAUACCUCGUGACAUGAGGAUCACCCAUGUUUUGAGGAUAUCAGACUUCAUGGUCAUGAGAAGGCAGAGCAUGAU [Tireala] (Eterna round: R96, puzzle: Exclusion NG 3) = 10.1

ACAUGUUGCGCAGGAUAUGAGACACAUGAGGAUCACCCAUGUGGUUACAUGUCUUACCAAGCGUCUCAGAAGGGUGUGAACAUG [Ex NG2 #33] (Eterna round: R96, puzzle: Exclusion NG 2) has a reported apparent KD of MS2 coat protein of 20.3

Entry under test: CUGGACCCGGUAGGAUAUAUUGUGGGCGGGCGUGGAACGACAUGAGGAUCACCCAUGUGAUUGAGGUAGAAGGGCCGAGAGGUU [Excl-NG2-LRO18] (Eterna round: R96, puzzle: Exclusion NG 2) . Its apparent KD of MS2 coat protein was 33.8

###

System: MS2 coat protein
Assay text: apparent KD of MS2 coat protein; designed switch direction (-1 OFF switch, 1 ON switch): -1; higher = weaker reporter binding
Assay setup: Eterna round: R95; input ligand: microRNA oligo, concentration not stated
Classification field: enter Criterion met for apparent KD of MS2 coat protein values not below 0.04 µM, Criterion not met for values below it.

Answered examples (5):
>>> class("AGAUGGCGAGGAUAUACAUGAGGAUCACCCAUGUGAAUAAUAAUAGUGAGGAAGAAAAGUAGAAGGCGCUGUCA [Mat - Exclusion 3 - Mod of Salish D34] (puzzle: Exclusion 3)")
"Criterion met"
>>> class("UAUAACAAGCCAGAUCCUAACAUGAGGAUCACCCAUGUGCUCGUCUGAUUUUGUACUAUCAUGAGAGUGAUAGUACU [Level Boss var2-03] (puzzle: Sensor v3, turn-off variant 1)")
"Criterion met"
>>> class("AAGGUGUUAGGAUAUCGAAGGUUGUGGCAGGCGGGAAUUUGCGAGAAGGAACAUGAGGAUCACCCAUGUAAAAU [JR_Exclu4_Sub042] (puzzle: Exclusion 4)")
"Criterion not met"
>>> class("CGGUGCUGAGGAUAUACAUGAGGAUCACCCAUGUGUUCUAGCUAGCGUACUGGCAGAUGUAGAAGGCGGUACUG [JL-ex3-3.43 Brourd mod] (puzzle: Exclusion 3)")
"Criterion not met"
>>> class("GGAAAACAUGAGGAUCACCCAUGUAAGGAUAUGCAAAAGGAUAUAGAAGGAAGAAAAAGCAGAAGGUACAAAGG [salish99-ex1_r3_099] (puzzle: Exclusion 1)")
"Criterion met"

Does apparent KD of MS2 coat protein meet or surpass 0.04 µM for AUAUUAAUAUAGGAUAUCGAAUUUAUUAAUUAUCGAGAAGGAUAAACAUGAGGAUCACCCAUGUGGUAUCAUGG [Mat - Exclusion 6 - JL Mod - D39] (puzzle: Exclusion 6) ?
Criterion met

Is it the case that UGAGUGUGAGGAUAUGGUAAAGAUAAGAUGAUGAAAGAACUCCAGAAGGCACAUGAGGAUCACCCAUGUAGAUG [JL-ex4-2.12 Jieux mod] (puzzle: Exclusion 4) has apparent KD of MS2 coat protein reaching or exceeding 0.04 µM?
Criterion not met

hey, is apparent KD of MS2 coat protein for this one >= 0.04 µM? AUUUUGUCAGGAUAUGACUAGUAGGACGAGAGUGCUACUACUUAGAAGGGACAUGAGGAUCACCCAUGUAUUCC [Bring Us a Shrubbery-09] (puzzle: Exclusion 4)
Criterion not met

Form field: apparent KD of MS2 coat protein at least 0.04 µM? Entry: CGUCCUCUAGUUAGGAUAUUGUCUCGGAUACGAAACAAGAAGGGACAUGAGGAUCACCCAUGUAAUGAGGACGA [Malc #30 mod 16] (puzzle: Brourd's mod of Exclusion 4)
Criterion not met

###

apparent KD of K4 kissing-loop reporter values for the sequences below.
Tested on: K4 kissing-loop RNA reporter;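 also: bound reporter read as fluorescence of individual clusters on recovered sequencing chips by microscopy, with normalized cluster intensities fitted with a binding model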
Assay text: apparent KD of K4 kissing-loop reporter; higher = weaker reporter binding
Assay setup: Eterna round: R107; input ligand: none
Write the number in nM without appending the unit.

Field: example entries. Status: answers known.
>>> observed_result("ACGAUCAUGUCGGCCGCCACUGAGAGUAGUGAUGUUACUCUUUUCCUUUAGUUAUUAUAUUUUAUCAGGACCGGGACAUGUUCGU [JR_ExcTryptoB_Sub022]")
72.3
>>> observed_result("GGUAGCAUGGCGGCCGCCACUAUCAGGAGUGAUGUUCCAACGCAGAGCUUCAGCUAGUGUGUAAAUAGGACCGGGCCAUGCUACC")
512
>>> observed_result("GUACAUUGGAAACAAGAACAAAUAACCGAAGGAGCGCGUGAAAACGCAGGUAGGUCGCGGAAGCAGUGAUGUUGCAUUAGAGAUC [Same State Arginine A GF 16]")
61.1
>>> observed_result("CCUAUCUCAUACGAUACCAGUCUACGAUAUUUUAUCGUUGCCAUCACCGAGUGAUGUUCGGACCCUUGGCAGCGUAUGGGAUAGG [Ex Theophylline B K4 5]")
355

// next entry
// recorded apparent KD of K4 kissing-loop reporter for GGAUCCACCAGUGAUGUUGGAGUAAUCUCCAAGGAUAUGACGAAAGUCAGAAGGUGGUAAAUAGACGUCAAAGACGUCGGAUCCA [FmnA 22 #SwitchBubble #K4Early] : 97.9

###

Test system: MS2 coat protein
Assay text: apparent KD of MS2 coat protein; designed switch direction (-1 OFF switch, 1 ON switch): 1; higher = weaker reporter binding
Assay setup: Eterna round: R95; input ligand: none
Experimental endpoint: apparent KD of MS2 coat protein (µM)
Express your answer in µM, writing the number without its unit.

A selection of reference data follows.
>>> observed_result("GACAAUCUAUCUGAGGAUAUCAUGAAGAAAACAUGAGGAUCACCCAUGUGCAGGAUAACUGCAAAUGAGAAGGCAGAUAGAUUGG [Mat - Same State 2 - Mod - D3] (puzzle: Same State 2)")
0.02
>>> observed_result("AGUGGAGCCUGAGCUCCACAAAAGCAUGUACAUGAGGAUCACCCAUGUCAUGUACAAGCUUUUUGCUCGUCUUAAAA [Mat - hsa-mir-208a - Mod of JL - D18] (puzzle: Sensor for hsa-mir-208a)")
0.423
>>> observed_result("GGAGCCGGCACUGAGGAUAUUCAUAUUAAAACAUGAGGAUCACCCAUGUAGGCCAGAAGGCCUUGGGAGAAGGCGGGUCGGCCCG [Bibimoar - 3] (puzzle: Same State 2)")
0.647
>>> observed_result("GGCACAAAAGCACAGGAUAUGCAAAAGAACACAUGAGGAUCACCCAUGUAGCCUAAUAAAGGGCAGCAGAAGGGUGGGACUGCCA [Quaat] (puzzle: Same State 2)")
0.239
>>> observed_result("UUUAGUUGCGGGCAGGAUAUGUAUUAAAAUACAUGAGGAUCACCCAUGUACGGGUAUAACACCCGACAGAAGGGCCAAUCGCGAC [Laonerce - 4] (puzzle: Same State 2)")
0.0915
>>> observed_result("ACAAGCUUUUCUGUAGUGAAAGGUGGGAUACAUGAGGAUCACCCAUGUAUUGUUGUCAAUAUUUGUCCUCGUCUUAU [JR_SHM208A_Sub086] (puzzle: Sensor for hsa-mir-208a)")
0.0311
>>> observed_result("AGGGCCGCGGCACAGGAUAUGCACAGGUUCACAUGAGGAUCACCCAUGUGCUCUAGAUAACUUAAGCAGAAGGGUGUCAUGGUAA [Biarrace] (puzzle: Same State 2)")
0.0141
>>> observed_result("CAGCGCUGUCGAGAGGAUAUGCGGUGAUGGACAUGAGGAUCACCCAUGUUAGCGACAGCAUCACGGCAGAAGGCUCUAUCGCUGC [Soteed Omei mod 29] (puzzle: Same State 2)")
0.0489

Next sequence, apparent KD of MS2 coat protein to be filled in.
Input AAACUACGUGCACAGGAUAUACGUUCCUAUACAUGAGGAUCACCCAUGUACCAACCGAAAAGGAAGUAGAAGGGUGUCCGUAAAC [Esardixequ] (puzzle: Same State 2) . Output apparent KD of MS2 coat protein: 0.0572
